# Target system: Serine/threonine-protein kinase B-raf (Homo sapiens, UniProt P15056, V600E)
# Sequence (P15056 2-766 V600E limits assumed): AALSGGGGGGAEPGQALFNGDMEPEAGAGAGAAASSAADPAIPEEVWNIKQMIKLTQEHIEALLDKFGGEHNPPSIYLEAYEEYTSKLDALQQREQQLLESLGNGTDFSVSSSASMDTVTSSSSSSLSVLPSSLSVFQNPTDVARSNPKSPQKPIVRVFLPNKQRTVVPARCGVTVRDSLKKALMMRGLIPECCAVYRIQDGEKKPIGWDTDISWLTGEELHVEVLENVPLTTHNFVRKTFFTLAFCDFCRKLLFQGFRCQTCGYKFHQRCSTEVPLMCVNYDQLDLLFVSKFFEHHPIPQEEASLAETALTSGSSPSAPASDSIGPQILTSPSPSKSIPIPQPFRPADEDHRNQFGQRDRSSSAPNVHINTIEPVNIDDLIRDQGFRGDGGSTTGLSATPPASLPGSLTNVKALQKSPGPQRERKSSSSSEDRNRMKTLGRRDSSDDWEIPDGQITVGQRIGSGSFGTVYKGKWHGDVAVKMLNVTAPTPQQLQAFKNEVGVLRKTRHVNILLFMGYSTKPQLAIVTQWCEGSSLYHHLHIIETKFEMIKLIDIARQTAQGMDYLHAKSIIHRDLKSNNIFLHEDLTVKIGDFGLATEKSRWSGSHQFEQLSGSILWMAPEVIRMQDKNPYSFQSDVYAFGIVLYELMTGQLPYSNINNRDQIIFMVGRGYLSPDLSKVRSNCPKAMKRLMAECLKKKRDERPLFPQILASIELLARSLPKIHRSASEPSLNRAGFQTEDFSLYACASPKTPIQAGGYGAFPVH
# Test description: Inhibition of B-Raf V600E mutant in human Malme-3M cells assessed as basal ERK phosphorylation
# Assay type: cell-based
Catalogue of compounds with associated pIC50
By convention, pIC50 is the negative base-10 log of a molar concentration.

Illustrative cases are given below, each with its answer.
# Smiles data, Target system, pIC50
data = [
    ("CCCS(=O)(=O)Nc1ccc(F)c(C(=O)Nc2cnc3[nH]c(-c4ccc(C)cc4)nc3c2)c1F", "Serine/threonine-protein kinase B-raf (Homo sapiens, UniProt P15056, V600E)", 7.31),
    ("CCCS(=O)(=O)Nc1ccc(F)c(C(=O)Nc2cnc3[nH]c(-c4ccc(F)cc4)cc3c2)c1F", "Serine/threonine-protein kinase B-raf (Homo sapiens, UniProt P15056, V600E)", 7.70),
    ("CCCS(=O)(=O)Nc1ccc(F)c(C(=O)Nc2cnc3[nH]c(-c4ccccc4)cc3c2)c1F", "Serine/threonine-protein kinase B-raf (Homo sapiens, UniProt P15056, V600E)", 7.49),
    ("CCCS(=O)(=O)Nc1ccc(F)c(C(=O)Nc2cnc3[nH]c(-c4ccc(Cl)c(Cl)c4)nc3c2)c1F", "Serine/threonine-protein kinase B-raf (Homo sapiens, UniProt P15056, V600E)", 7.09),
    ("CCCS(=O)(=O)Nc1ccc(F)c(C(=O)Nc2cnc3[nH]c(-c4ccncc4)nc3c2)c1F", "Serine/threonine-protein kinase B-raf (Homo sapiens, UniProt P15056, V600E)", 5.72),
]

So for CCCS(=O)(=O)Nc1ccc(F)c(C(=O)Nc2cnc3[nH]c(CC)nc3c2)c1F , the logged pIC50 turned out to be 5.75

So for CCCS(=O)(=O)Nc1ccc(F)c(C(=O)Nc2cnc3[nH]c(-c4ccc(F)cc4)nc3c2)c1F , the logged pIC50 turned out to be 5.98

====

# Target system: Serine/threonine-protein kinase B-raf (Homo sapiens, UniProt P15056, V600E)
# Test description: Inhibition of full length B-Raf V600E mutant (unknown origin)
Measured property: pIC50
By convention, pIC50 is the negative base-10 log of a molar concentration.

Illustrative cases are given below, each with its answer.
# Smiles data, Target system, Obs value
measured = [
    ("CCCS(=O)(=O)Nc1ccc(F)c(C(=O)Nc2cnc3[nH]c(-c4ccc(F)cc4)nc3c2)c1F", "Serine/threonine-protein kinase B-raf (Homo sapiens, UniProt P15056, V600E)", 8.36),
    ("CCCS(=O)(=O)Nc1ccc(F)c(C(=O)Nc2cnc3[nH]c(-c4ccccc4Br)nc3c2)c1F", "Serine/threonine-protein kinase B-raf (Homo sapiens, UniProt P15056, V600E)", 7.57),
    ("CCCS(=O)(=O)Nc1ccc(F)c(C(=O)Nc2cnc3[nH]c(CC)nc3c2)c1F", "Serine/threonine-protein kinase B-raf (Homo sapiens, UniProt P15056, V600E)", 7.23),
]

Let us examine a further case.
So for CCCS(=O)(=O)Nc1ccc(F)c(C(=O)Nc2cnc3[nH]c(C4CCNCC4)nc3c2)c1F , the logged pIC50 turned out to be 6.97

====

# Target system: Serine/threonine-protein kinase B-raf (Homo sapiens, UniProt P15056, V600E)
# Test description: Inhibition of full length B-Raf V600E mutant (unknown origin)
pIC50: −log10 of the molar value.
# pIC50 >= 8 gives condition met, anything below gives condition not met

Use the examples below as a reference point.
# Smiles data, Label
data = [
    ("CCCS(=O)(=O)Nc1ccc(F)c(C(=O)Nc2cnc3[nH]c(-c4ccccc4)nc3c2)c1F", "condition met"),
    ("CCCS(=O)(=O)Nc1ccc(F)c(C(=O)Nc2cnc3[nH]c(C)nc3c2)c1F", "condition not met"),
    ("CCCS(=O)(=O)Nc1ccc(F)c(C(=O)Nc2cnc3[nH]c(C(C)(C)C)nc3c2)c1F", "condition not met"),
    ("CCCS(=O)(=O)Nc1ccc(F)c(C(=O)Nc2cnc3[nH]c(-c4ccccc4Cl)nc3c2)c1F", "condition not met"),
]

Pending molecule:
Task: Item CCCS(=O)(=O)Nc1ccc(F)c(C(=O)Nc2cnc3[nH]c(-c4cccnc4)nc3c2)c1F with pIC50 of 8 or above?
Result: condition met
